Can you tell me IC50 for the items I'm about to list?
Molecular target: NLRP3 inflammasome (Homo sapiens, UniProt Q96P20)
Construct: endogenous in cells
Sequence (Q96P20 whole entry): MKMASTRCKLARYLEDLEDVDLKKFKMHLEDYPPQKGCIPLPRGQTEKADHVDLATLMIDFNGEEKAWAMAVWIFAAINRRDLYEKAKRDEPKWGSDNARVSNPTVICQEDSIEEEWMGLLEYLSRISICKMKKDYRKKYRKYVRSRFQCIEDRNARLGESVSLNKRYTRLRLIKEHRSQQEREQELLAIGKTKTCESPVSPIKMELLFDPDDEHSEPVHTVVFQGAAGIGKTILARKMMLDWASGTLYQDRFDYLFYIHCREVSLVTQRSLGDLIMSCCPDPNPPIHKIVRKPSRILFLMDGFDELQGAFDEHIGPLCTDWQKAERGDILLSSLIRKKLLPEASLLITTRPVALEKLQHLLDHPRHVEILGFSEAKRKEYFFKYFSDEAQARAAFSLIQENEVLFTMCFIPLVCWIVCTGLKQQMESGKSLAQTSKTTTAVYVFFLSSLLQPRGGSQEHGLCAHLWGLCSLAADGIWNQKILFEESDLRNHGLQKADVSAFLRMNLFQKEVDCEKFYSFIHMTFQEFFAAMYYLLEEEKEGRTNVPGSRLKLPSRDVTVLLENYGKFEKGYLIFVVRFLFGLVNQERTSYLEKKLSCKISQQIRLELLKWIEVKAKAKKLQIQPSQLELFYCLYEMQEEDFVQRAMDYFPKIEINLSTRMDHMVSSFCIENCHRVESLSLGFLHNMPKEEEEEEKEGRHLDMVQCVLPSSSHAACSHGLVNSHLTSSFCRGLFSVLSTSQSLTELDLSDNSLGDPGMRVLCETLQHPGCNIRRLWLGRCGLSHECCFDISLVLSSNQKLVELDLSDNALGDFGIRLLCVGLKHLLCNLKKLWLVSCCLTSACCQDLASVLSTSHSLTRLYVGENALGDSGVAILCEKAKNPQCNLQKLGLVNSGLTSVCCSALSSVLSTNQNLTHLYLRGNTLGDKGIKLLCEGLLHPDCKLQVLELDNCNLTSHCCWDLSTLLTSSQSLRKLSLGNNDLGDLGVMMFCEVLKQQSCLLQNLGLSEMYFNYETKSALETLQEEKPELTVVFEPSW
Assay: THP-1 Cell-Based NLRP3 Activation Assay
Details: THP-1 cells, PMA, 100 ng/mL LPS 3 hrs, 30 min pre-incubation with test compound, 10 μM nigericin 1 hr

Example results:
What does the data say about its IC50? Entry: CC(O)c1ncc(CN(C)C(=O)c2cc(F)c(-c3cccc(Cl)c3)c(OC3CC3)c2)c2[nH]ncc12 (stereo not shown)
< 1000 nM

Fill blank: measured IC50 of the molecule CCOc1nc(C(=O)N(C)[C@@H](C)c2cnc(C)c3cn[nH]c23)ccc1-c1cccc(F)c1 is ____.
< 1000 nM

Can you look up the measured IC50 of Cc1ncc([C@H](C)N(C)C(=O)c2cc(F)c(-c3cccc(F)c3)c(OC3CC3)c2)c2[nH]ncc12 for me?
< 1000 nM

Quick one: IC50 for CC(C)Oc1cc(C(=O)N(C)Cc2cnc(CO)c3cn[nH]c23)ccc1-c1cccc(F)c1 ?
< 1000 nM

Which value of IC50 has been reported for CCN(Cc1cnc(CO)c2cn[nH]c12)C(=O)c1ccc(-c2cccc(Cl)c2)c(OC2CC2)c1 in the records?
< 1000 nM

Return reported IC50; argument: CN(Cc1cnc(CO)c2cn[nH]c12)C(=O)c1ccc(-c2cccc(F)c2)c(OC2COC2)c1
< 10000 nM

Would you kindly look at the next entry?
What does the data say about its IC50? Entry: CCOc1nc(C(=O)N(C)[C@@H](C)c2ccc(CF)c3cn[nH]c23)ccc1-c1cccc(F)c1
< 50000 nM

====

Biological target: NLRP3 inflammasome (Homo sapiens, UniProt Q96P20)
Construct: endogenous in cells
Assay: THP-1 Cell-Based NLRP3 Activation Assay
Details: THP-1 cells, PMA, 100 ng/mL LPS 3 hrs, 30 min pre-incubation with test compound, 10 μM nigericin 1 hr
pIC50: −log10 of the molar value.
measurement-label: pIC50

State recorded pIC50 for all listed compounds.
1. CCOc1cc(C(=O)N(CC)Cc2cnc(CO)c3cn[nH]c23)ccc1-c1cccc(F)c1
2. CCOc1cc(C(=O)N(C)Cc2cnc(C(C)O)c3cn[nH]c23)ccc1-c1cccc(C#N)c1 (stereo not drawn)
3. Cc1nc(CO)c2cn[nH]c2c1CN(C)C(=O)c1ccc(-c2cccc(C#N)c2)c(OC2CC2)c1
4. CCOc1nc(C(=O)N(C)Cc2cnc(CF)c3cn[nH]c23)ccc1-c1cccc(C(F)(F)F)c1
5. CCOc1cc(C(=O)N(C)Cc2cnc(C(C)O)c3cn[nH]c23)cc(Cl)c1-c1cccc(F)c1 (stereo not drawn)

["> 6.00", "> 6.00", "> 6.00", "> 6.00", "> 4.30"]

Give pIC50 for all compounds that follow.
1. CCOc1cc(C(=O)N(C)Cc2cc(O)cc3cn[nH]c23)cc(F)c1-c1ccccc1
2. CCOc1cc(C(=O)N(C)Cc2cc(C(=O)OC)cc3cn[nH]c23)ccc1-c1cccc(F)c1
3. CCOc1cc(C(=O)NCc2cnc(CO)c3cn[nH]c23)ccc1-c1cccc(F)c1
4. Cc1ncc(CNC(=O)c2cc(F)c(-c3cccc(Cl)c3)c(OC3CC3)c2)c2[nH]ncc12
5. CCOc1cc(C(=O)N(C)Cc2cnc(C(C)F)c3cn[nH]c23)ccc1-c1cccc(F)c1 (stereo not drawn)

1. > 6.00
2. > 5.00
3. > 6.00
4. > 6.00
5. > 6.00

Count: 7. Required value per item: pIC50.
1. CCOc1cc(C(=O)N(C)Cc2c(C)nc(CF)c3cn[nH]c23)ccc1-c1cccc(F)c1
2. Cc1nc(CO)c2cn[nH]c2c1CN(C)C(=O)c1cc(F)c(-c2cccc(Cl)c2)c(OC2CC2)c1
3. CCCOc1cc(C(=O)N(C)Cc2cnc(CO)c3cn[nH]c23)cc(F)c1-c1cccc(F)c1
4. CCOc1cc(C(=O)N(C)[C@@H](C)c2cnc(C)c3cn[nH]c23)ccc1-c1cccc(F)c1
5. CCOc1cc(C(=O)N(C)C(C)c2cnc(CF)c3cn[nH]c23)ccc1-c1cccc(F)c1 (stereo not drawn)
6. CCN(Cc1cnc(C(C)O)c2cn[nH]c12)C(=O)c1ccc(-c2cccc(F)c2)c(OC2CC2)c1 (stereo not drawn)
7. CCCOc1cc(C(=O)N(C)Cc2cnc(CO)c3cn[nH]c23)ccc1-c1cccc(F)c1

> 6.00
> 6.00
> 6.00
> 4.30
> 6.00
> 6.00
> 6.00

Field: pIC50. Fill in for each record below.
1. CC(O)c1ncc(CN(C)C(=O)c2ccc(-c3cccc(C#N)c3)c(OC3CC3)c2)c2[nH]ncc12 (stereo not drawn)
2. CN(Cc1c(CO)ncc2cn[nH]c12)C(=O)c1cc(F)c(-c2cccc(Cl)c2)c(OC2CC2)c1
3. CCOc1cc(C(=O)N(C)[C@@H](C)c2c(C)ncc3cn[nH]c23)ccc1-c1cccc(F)c1
4. CCOc1cc(C(=O)N(C)Cc2cnc(CO)c3cn[nH]c23)cc(F)c1-c1cc(C#N)cs1
5. Cc1nc(C)c2cn[nH]c2c1CN(C)C(=O)c1cc(F)c(-c2cccc(F)c2)c(OC2CC2)c1
6. CCN(Cc1cnc(CO)c2cn[nH]c12)C(=O)c1cc(F)c(-c2cccc(Cl)c2)c(OC2CC2)c1
7. CCOc1cc(C(=O)N(C)Cc2cnc(C(C)O)c3cn[nH]c23)cc(Cl)c1-c1cccc(Cl)c1 (stereo not drawn)

1: > 4.30; 2: > 6.00; 3: > 5.00; 4: > 6.00; 5: > 6.00; 6: > 6.00; 7: > 6.00

Batch request: pIC50 per item, same order as input.
1. CC(O)c1ncc(CN(C)C(=O)c2ccc(-c3cccc(Cl)c3)c(OC3CC3)c2)c2[nH]ncc12 (stereo not drawn)
2. CCOc1cc(C(=O)N(C)Cc2c(C)nc(C(C)O)c3cn[nH]c23)ccc1-c1cccc(F)c1 (stereo not drawn)
3. Cc1ncc(CN(C)C(=O)c2cc(F)c(-c3cccc(Cl)c3)c(OC3CC3)c2)c2[nH]ncc12
4. CCOc1cc(C(=O)N(C)Cc2c(CO)ncc3cn[nH]c23)ccc1-c1cccc(F)c1
5. CCN(Cc1cnc(CO)c2cn[nH]c12)C(=O)c1cc(F)c(-c2cccc(C#N)c2)c(OC2CC2)c1
6. CCN(Cc1cnc(CO)c2cn[nH]c12)C(=O)c1ccc(-c2cccc(C#N)c2)c(OC2CC2)c1

> 6.00
> 6.00
> 6.00
> 6.00
> 6.00
> 4.30

====

Target: NLRP3 inflammasome (Homo sapiens)
Construct: endogenous in cells
Experiment: THP-1 Cell-Based NLRP3 Activation Assay
Details: THP-1 cells, PMA, 100 ng/mL LPS 3 hrs, 30 min pre-incubation with test compound, 10 μM nigericin 1 hr
measurement-label: IC50

Give IC50 (NLRP3 inflammasome (Homo sapiens)) of the following compound: CCOc1cc(C(=O)N(C)Cc2cnc(C)c3cn[nH]c23)ccc1-c1cc(C#N)cs1
< 10000 nM

Would you mind listing IC50 for each of the following compounds?
1. CCOc1cc(C(=O)N(C)Cc2cnc(CO)c3cn[nH]c23)cc(F)c1-c1cc(F)cs1
2. CCOc1cc(C(=O)N(C)Cc2cnc(C(C)O)c3cn[nH]c23)cc(F)c1-c1cc(C#N)cs1 (centres unmarked)
3. CCOc1cc(C(=O)N(C)Cc2cnc(C)c3cn[nH]c23)cc(CF)c1-c1cccc(F)c1
4. CC(O)c1ncc(CN(C)C(=O)c2ccc(-c3ccc(Cl)s3)c(OC3CC3)c2)c2[nH]ncc12 (centres unmarked)
5. Cc1ncc2cn[nH]c2c1CN(C)C(=O)c1cc(F)c(-c2cccc(F)c2)c(OC2CC2)c1
6. CCOc1nc(C(=O)N(C)[C@H](C)c2cncc3cn[nH]c23)ccc1-c1cccc(F)c1
7. CCOc1cc(C(=O)N(C)[C@H](C)c2c(C)ncc3cn[nH]c23)ccc1-c1cccc(F)c1
8. CCOc1cc(C(=O)N(CC)Cc2cnc(CO)c3cn[nH]c23)ccc1-c1cccc(C#N)c1

1: < 1000 nM; 2: < 10000 nM; 3: < 10000 nM; 4: < 1000 nM; 5: < 1000 nM; 6: < 50000 nM; 7: < 50000 nM; 8: < 10000 nM

Give me IC50 for each of these compounds, listed below.
1. CCOc1cc(C(=O)N(C)[C@@H](C)c2cccc3cn[nH]c23)ccc1-c1cccc(F)c1
2. Cc1ncc(CN(C)C(=O)c2cc(F)c(-c3cccc(C#N)c3)c(OC3CC3)c2)c2[nH]ncc12
3. CCOc1cc(C(=O)N(C)Cc2cnc(CO)c3cn[nH]c23)ccc1-c1nc(Cl)cs1
4. CCOc1cc(C(=O)N(C)Cc2cnc(CO)c3cn[nH]c23)cc(F)c1-c1cccs1
5. CN(Cc1cnc(CO)c2cn[nH]c12)C(=O)c1ccc(-c2cc(F)cc(F)c2)c(OC2COC2)c1

1. < 1000 nM
2. < 1000 nM
3. < 1000 nM
4. < 1000 nM
5. < 1000 nM
